The values you see were collected from patent US20240409530A1.

target_under_test: Rat recombinant KHK-C (Rattus norvegicus (Rat))
Sequence (Q02974 whole entry): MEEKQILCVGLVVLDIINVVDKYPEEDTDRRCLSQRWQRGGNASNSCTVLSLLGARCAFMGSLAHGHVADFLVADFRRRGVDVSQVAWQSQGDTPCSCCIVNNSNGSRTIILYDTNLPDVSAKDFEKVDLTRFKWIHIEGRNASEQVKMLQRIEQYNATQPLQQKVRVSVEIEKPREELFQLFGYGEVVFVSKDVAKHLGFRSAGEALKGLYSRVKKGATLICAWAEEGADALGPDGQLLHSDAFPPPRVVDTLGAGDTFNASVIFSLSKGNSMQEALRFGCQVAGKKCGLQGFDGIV
method_summary: KHK inhibition assay, recombinant isozyme (coupled pyruvate kinase/LDH, NADH absorbance 340 nm)
reported_conditions: recombinant isozyme 6 nM, fructose 2 mM, ATP 0.1 mM
IC50 values, listed per item
A number alone suffices; assume nM.

Example results:
Cc1c(-c2cnn(CC(=O)N3CCNCC3)c2)nc(N2CC[C@@H]2C(F)F)nc1C(F)F; 26
C[C@H]1CCN1c1nc(-c2cnn(CC(=O)N3CCNCC3)c2)cc(C(F)F)n1; 120
Cc1c(-c2cnn(C3CN(C)C3)c2)nc(N2C[C@@H](O)[C@@H]2C)nc1C(F)F; 3.33

Attention now turns to another entry.
Incoming: Item CCc1c(-c2cnn(CC(=O)N3CCNCC3)c2)nc(N2CC[C@@H]2C)nc1C(F)F with Rat recombinant KHK-C (Rattus norvegicus (Rat)) - IC50?
Outgoing: 26

---

target_under_test: human KHK in HepG2 Cells (Homo sapiens (Human), UniProt P50053)
Sequence (P50053 whole entry): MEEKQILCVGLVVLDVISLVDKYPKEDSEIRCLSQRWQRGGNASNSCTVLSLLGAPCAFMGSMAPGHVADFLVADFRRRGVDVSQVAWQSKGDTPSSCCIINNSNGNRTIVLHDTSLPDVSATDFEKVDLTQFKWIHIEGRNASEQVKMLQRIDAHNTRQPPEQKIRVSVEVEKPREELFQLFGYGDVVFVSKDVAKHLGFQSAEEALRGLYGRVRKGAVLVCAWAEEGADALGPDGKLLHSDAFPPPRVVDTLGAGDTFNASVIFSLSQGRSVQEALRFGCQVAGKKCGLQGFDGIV
method_summary: Cell-based potency assay (HepG2 assay), F1P by LC/MS
reported_conditions: fructose 20 mM, 20 min, F1P produced
Threshold 30 nM: IC50 strictly smaller gives true (1), otherwise false (0).

Cc1c(-c2cnn(CC(=O)N3CCNCC3)c2)nc(N2CC[C@@H]2C)nc1C(F)(F)F [Compound A3]; true (1)

Incoming: Consider the compound CCc1c(-c2cnn(CC(=O)N3CCNCC3)c2)nc(N2CC[C@@H]2C)nc1C(F)(F)F [Compound A6] . Is its IC50 strictly less than 30 nM?
Outgoing: false (0)

Incoming: Consider the compound C[C@H]1[C@H](O)CN1c1nc(-c2cnn(C3CN(C)C3)c2)cc(C(F)(F)F)n1 [Compound C3, reference compound] . Is its IC50 strictly less than 30 nM?
Outgoing: true (1)

Incoming: Consider the compound Cc1c(-c2cnn(CC(=O)N3CCNCC3)c2)nc(N2CC[C@@H]2C)nc1C(F)F [Compound A24] . Is its IC50 strictly less than 30 nM?
Outgoing: true (1)

Incoming: Consider the compound Cc1c(-c2cnn(CC(=O)N3CCNCC3)c2)nc(N2CC[C@@H]2C(F)F)nc1C(F)F [Compound A42] . Is its IC50 strictly less than 30 nM?
Outgoing: false (0)

Incoming: Consider the compound Cc1c(-c2cnn(CC(=O)N3CCNCC3)c2)nc(N2CC[C@@H]2C(F)F)nc1C(F)(F)F [Compound A43] . Is its IC50 strictly less than 30 nM?
Outgoing: true (1)

Incoming: Consider the compound Cc1c(-c2cnn(CC(=O)N3CCNCC3)c2)nc(N2CC[C@@H]2C(F)(F)F)nc1C(F)(F)F [Compound A1] . Is its IC50 strictly less than 30 nM?
Outgoing: true (1)

---

target_under_test: human KHK-C in engineered HepG2 cells (Homo sapiens (Human), UniProt P50053)
Sequence (P50053 whole entry, stated change not applied): as the sequence (P50053 whole entry) above
method_summary: Cell-based potency assay (KHK-C-overexpressing HepG2 assay), F1P by LC/MS
reported_conditions: fructose 30 mM, 5 min, F1P produced, geomean
pIC50: −log10 of the molar value.
Outcome: 1 (yes) for pIC50 of at least 7; 0 (no) for anything lower.

Illustrative cases are given below, each with its answer.
Cc1c(-c2cnn(C3CN(C)C3)c2)nc(N2C[C@@H](O)[C@@H]2C)nc1C(F)(F)F; 1 (yes)
C[C@H]1CCN1c1nc(-c2cnn(CC(=O)N3CCNCC3)c2)cc(C(F)(F)F)n1 [Compound C2, reference compound]; 0 (no)
C[C@H]1[C@H](O)CN1c1nc(-c2cnn(C3CN(C)C3)c2)cc(C(F)(F)F)n1 [Compound C3, reference compound]; 0 (no)
Cc1c(-c2cnn(C3CN(C)C3)c2)nc(N2C[C@@H](O)[C@@H]2C)nc1C(F)F; 1 (yes)
C[C@H]1[C@H](O)CN1c1nc(-c2cnn(C3CN(C)C3)c2)cc(C(F)F)n1; 0 (no)

Kindly review the next compound as well.
Incoming: Hi team, for Cc1c(-c2cnn(CC(=O)N3CCNCC3)c2)nc(N2CC[C@@H]2C)nc1C(F)(F)F , is the recorded pIC50 at or above 7?
Outgoing: 0 (no)
